# Test system: NIH3T3
# experimentSummary: Cytotoxic Profiling of Annotated Libraries Using Quantitative High-Throughput Screening (AID 1296008); further: nearly all actives have a fitted effect of over 60% in size
# experimentalParameters: Five cell lines viability, CellTiter-Glo ATP luminescence, 48-72 h
Records with an inconclusive call do not appear. Calls of active or inactive are those of the source. The call rests on the fitted dose curve; in most records, active means well fitted inhibition curve with a large enough effect; inconclusive means small, poorly fitted or top-dose-only effect; inactive means flat fitted curve, though single readings scatter.
Select the matching outcome among active, inactive

Study these solved cases before continuing.
molecule	targetOrSystem	categoryLabel
C=C1CCC2C(C)(C)CCCC2(C)C1CC/C(C)=C\CO (stereo not given)	NIH3T3	inactive
COc1cc(CCc2cc(NC(=O)c3ccc(N4CC(C)NC(C)C4)cc3)n[nH]2)cc(OC)c1 (stereo not given)	NIH3T3	active
Cn1cc(C2=C(c3coc4ccccc34)C(=O)NC2=O)c2cc(Br)ccc21	NIH3T3	inactive
CCOC(=O)N1CCC(N2CCC[C@@H](NC(=O)c3ccccc3C)C2)CC1	NIH3T3	inactive
COc1ccc2cc(-c3cc(-c4cc(Cl)cc(Cl)c4)nn3C(C)c3ccc(C(=O)NCCC(=O)O)cc3)ccc2c1 (stereo not given)	NIH3T3	inactive
O=C(Nc1ccnc(NC(=O)C2CC2)c1)c1c(Cl)cccc1Cl	NIH3T3	active
COC1CC(O[C@H]2CC[C@]3(C)C4CC[C@]5(C)C(C6=CC(=O)OC6)=CCC56OC46CC[C@@H]3C2)OC(C)C1O[C@@H]1O[C@H](CO[C@@H]2O[C@H](CO)[C@@H](O)[C@H](O)[C@H]2O)[C@@H](O)[C@H](O)[C@H]1O (stereo not given in full)	NIH3T3	inactive
CCOc1cc(C(C)(C)C)ccc1C1=NC(C)(c2ccc(Cl)cc2)C(C)(c2ccc(Cl)cc2)N1C(=O)N1CCN(CCCS(C)(=O)=O)CC1 (stereo not given)	NIH3T3	active

Call for entry CNC1CN(c2ccc3c(=O)c(C(=O)O)cn(-c4nccs4)c3n2)CC1OC (stereo not given) :
active

Per the assay record, what outcome was assigned to C/C=C(\C)C(=O)OC1C=C(C)CC(OC(=O)c2ccc(O)cc2)C2C1(C)CCC2(O)C(C)C (stereo not given) ?
inactive

Check the results log: what was the call for `CCn1c(=O)c(-c2ccc(Cl)cc2Cl)cc2cnc(Nc3ccc(N4CCNCC4)c(F)c3)nc21` ?
active

Would you mind telling me which call this test gave C/C1=C/CCC2=CC(OC2=O)C(C)(C)/C=C/C1=O (stereo not given) ?
active

Just curious, what result did COc1cc(F)c(C(C)C)cc1-c1ccc(C(F)(F)F)cc1CN1C(=O)OC(c2cc(C(F)(F)F)cc(C(F)(F)F)c2)C1C (stereo not given) get here?
inactive

What did this assay record as the result for `CC(C)c1c(O)ccc2c1CC[C@H]1C(C)(C)CCC[C@]21C` ?
inactive

Please state the recorded outcome for this molecule: `Cc1cc2c(cc1N1C(=O)c3cccc4c(CCCO)ccc(c34)C1=O)n(C)c(=O)n2C`
active

What outcome does the record of this test show for COc1ccc(-c2ccc3c(N4CCOCC4C)nc(N4CCOCC4C)nc3n2)cc1CO (stereo not given) ?
active

Please share the test call associated with `CCOc1ccc(S(=O)(=O)N2CCCCCC2)c2ccccc12` .
inactive

Please state the recorded outcome for this molecule: `C1=Cc2ccccc2C(=C2CCN(CCCCc3nn[nH]n3)CC2)c2ccccc21`
inactive

Field: outcome | Entry: `COc1cc(N2CCC(N3CCN(C)CC3)CC2)ccc1Nc1ncc(Cl)c(Nc2ccccc2P(C)(C)=O)n1`
active

Could you check what this test reported for CC(C)(F)CC(NC(c1ccc(-c2ccc(S(C)(=O)=O)cc2)cc1)C(F)(F)F)C(=O)NC1(C#N)CC1 (stereo not given) ?
inactive

Dear all, I need the recorded test outcome for CC(=O)OC(C)(C)/C=C/C(=O)[C@](C)(O)[C@H]1C(O)C[C@@]2(C)[C@@H]3CC=C4[C@@H](C=C(O[C@@H]5O[C@H](CO)[C@@H](O)[C@H](O)[C@H]5O)C(=O)C4(C)C)[C@]3(C)C(=O)C[C@]12C (stereo not given in full) , thank you.
inactive

Answer briefly: the call reported for Cc1nc(NC(=O)N2CCCC2C(N)=O)sc1-c1ccnc(C(C)(C)C(F)(F)F)c1 (stereo not given) in this assay.
active

Answer briefly: the call reported for `Fc1ccc(-n2cc(CCCCN3CCC4(CC3)OCc3ccccc34)c3ccccc32)cc1` in this assay.
active

For C=C1C(=O)OC2/C=C(\C)CC/C=C(\C)CC(OC(C)=O)C12 (stereo not given) , which call appears in the assay record?
active

Fill in: this test's call for C=C1C(=O)O[C@@H]2C(OC(=O)/C(C)=C\C)/C(C)=C\C(=O)/C=C(\C)C[C@H](O)[C@@H]12 (stereo not given in full) is ___
active

How did this test come out for `N#Cc1ccnc(Nc2cc(C3CCN(C4COC4)CC3)cc(N3CCC(F)(F)C3)n2)c1` ?
active

###

# experimentSummary: Primary redox qHTS assay for identification of artifact compounds. (AID 1845223);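 further: 0% = DMSO and 100% = reference compound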
# experimentalParameters: Amplex Red/HRP redox cycling with DTT, fluorescence; series mostly up to 53.8 µM
Inconclusive results are not listed. Calls of active or inactive are those of the source. Calls come from the whole dose curve; as a rule, active = well fitted activation curve with a large enough effect; inconclusive = small, poorly fitted or top-dose-only effect; inactive = flat fitted curve, though single readings scatter.
quantityKind: redox activity (% of DA3003)

>>> print(df.to_string())
                                   compound                  quantitykind   reading
0  C/C(=C\CCC(C)C1=CCC2(C)OC3=C(CC12)C(=O)C(O)CC3)CO (stereo unspecified)  redox activity (% of DA3003)  inactive
1  O=C(NC1CCN(CCCCC2(C(=O)NCC(F)(F)F)c3ccccc3-c3ccccc32)CC1)c1ccccc1-c1ccc(C(F)(F)F)cc1  redox activity (% of DA3003)  inactive
2  Cc1[nH]c(/C=C2\C(=O)Nc3cc(-c4ccccc4)ccc32)c(C)c1CCC(=O)O  redox activity (% of DA3003)  inactive
3      O=C(Nc1ncc([N+](=O)[O-])s1)c1ccccc1O  redox activity (% of DA3003)  inactive

`C=C[C@H](/C=C\c1ccc(O)cc1)c1ccc(O)cc1` has a reported redox activity (% of DA3003) of inactive

Reported redox activity (% of DA3003) for `COc1ccc(N(C(=O)Nc2c(C)cccc2C)c2cc(Nc3ccc(N4CCN(C)CC4)cc3)ncn2)c(OC)c1` was inactive

For reference, reported redox activity (% of DA3003) for CCCCNc1ncc2c(-c3ccc(S(=O)(=O)N4CCOCC4)cc3)nn(C3CCC(O)CC3)c2n1 (stereo unspecified) stands at inactive

response.value for CC12CCC3C1C(c1c(cc(O)c(C(=O)c4ccccc4)c1O)O2)C3(C)C (stereo unspecified) (field: redox activity (% of DA3003)) = inactive

Quick note, redox activity (% of DA3003) for `COc1ccc2cc3c(NC(=O)c4ccco4)nn(C)c3nc2c1` landed at inactive

Form: compound = CCn1c(N)c(C(=O)NC)c(=O)c2ccc(C#CC(C)(O)COC)nc21 (stereo unspecified) ; redox activity (% of DA3003) = inactive

Query CC(C)/C=C1\NC(=O)C(C(C)C)n2c1nc1ccccc1c2=O (stereo unspecified) yields redox activity (% of DA3003) of inactive

###

# experimentSummary: Drug repurposing screens with cells derived from glioblastoma tumor samples (AID 1345199); further: on the % scale 0 is the no-effect control and ±100 the full control effect; nearly all actives have a fitted effect of over 40% in size
# experimentalParameters: GBM patient neurospheres viability, ATP luminescence, 48 h; at 45.9 µM (top of the series); tumour line D
Records with an inconclusive call do not appear.
quantityKind: activity, negative = cell killing (%)
Give the number; % is assumed, so skip it.

molecule	u	activity, negative = cell killing
CC(C(=O)O)c1ccc(C2CCCCC2)c2ccccc12 (stereo not given)	%	-15.4
C/C(=C(\CCOC(=O)c1ccccc1)SS/C(CCOC(=O)c1ccccc1)=C(/C)N(C=O)Cc1cnc(C)nc1N)N(C=O)Cc1cnc(C)nc1N	%	-28
CC(=O)O[C@H]1CC[C@@]2(C)C(=CC[C@H]3[C@@H]4CC[C@H](C(C)=O)[C@@]4(C)CC[C@@H]32)C1	%	-28.1
CCOC(=O)[C@H](CCc1ccccc1)N[C@H]1CCCN2CCC[C@@H](C(=O)O)N2C1=O	%	-14.2
COc1cc(C[C@@H]2NCCc3cc(O)c(O)cc32)cc(OC)c1OC	%	-12.2
C[C@@H]1C[C@H]2C3C[C@H](F)C4=CC(=O)C=CC4(C)[C@@]3(F)[C@@H](O)CC2(C)[C@@]1(O)C(=O)COC(=O)C(C)(C)C (stereo not given in full)	%	-10.7

In plain terms, OCC(O)COc1ccc(Cl)cc1 (stereo not given) has a documented activity, negative = cell killing of -2.58

###

# Tested on: CRL-7250
# experimentSummary: Cytotoxic Profiling of Annotated Libraries Using Quantitative High-Throughput Screening (AID 1296008); further: nearly all actives have a fitted effect of over 60% in size; on max response: on the % scale 0 is the no-effect control and ±100 the full control effect
# experimentalParameters: Five cell lines viability, CellTiter-Glo ATP luminescence, 48-72 h; hits give low values
Records with an inconclusive call do not appear.
The entries below are paired with their reported max response.
Please give a number only; it is taken to be in %.

Worked examples, 5 compounds total:
compound	max response (%)
COc1ccc2nccc(C(=O)CC[C@@H]3CCN(CC#Cc4cc(F)cc(F)c4F)C[C@@H]3C(=O)O)c2c1	-3.43
Cc1noc(-c2ccc(-c3ccc(CC(=O)O)cc3)cc2)c1NC(=O)O[C@H](C)c1ccccc1Cl	-11.1
C/C=C/C=C/C(=O)O[C@@H]1C=C2COC(=O)[C@]2(O)[C@@]2(C)CCCC(C)(C)[C@H]12	-1.83
CC(=O)C=C=C1C(C)(C)CC(O)CC1(C)O[C@@H]1O[C@H](CO[C@H]2OC[C@](O)(CO)[C@H]2O)[C@@H](O)[C@H](O)[C@H]1O (stereo not given in full)	-2.66
O=C(NCC1(c2nc(-c3ccccc3)cs2)CCOCC1)c1cccc(-c2noc(C(F)(F)F)n2)c1	-0.2

max response reading for C=C(COC(=O)C(O)C(O)CN)C12OC1C1(C)C(=CC2=O)C(O)C(O)CC1C (stereo not given) : -7.2

Just so you know, measured max response for CC1(C)CC[C@]23CO[C@@]4(CCC5[C@@]6(C)CC[C@H](O[C@@H]7OC[C@H](O[C@@H]8O[C@H](CO)[C@@H](O)[C@H](O)[C@H]8O[C@@H]8OC[C@@H](O)[C@H](O)[C@H]8O)[C@H](O)[C@H]7O)[C@@](C)(CO)C6CC[C@@]5(C)[C@]4(C)CC2=O)[C@@H]3C1 (stereo not given in full) came out at -12.4

Measured max response of `Cc1cc(C)cc(-c2cnc3cc(Cl)c(-c4cccc(O)c4)cc3c2OCCCN)c1` : 3.3

Field max response (entry COc1ccc(CCc2nc3cc(-c4c(C)noc4C)ccc3n2CC(C)N2CCOCC2)cc1Cl (stereo not given) ) reads -13.4

Quick note, max response for `C[C@H]1CO[C@@H]2Cn3cc(C(=O)NCc4ccc(F)cc4F)c(=O)c(O)c3C(=O)N12` landed at -9.56
